# target-or-system: T1, HLA-A*0201 on the surface of T2 cells (human)
# T1 construct: Class I molecule that the test peptides load in the HLA-A2 stabilization assay; also called HLA-A2
# method: HLA-A2 stabilization on T2 cells, BB7.2 staining, flow cytometry
quantity-name: binding result

Record RLAALALVL (Alanine-substituted variant of 5T4p17) [R4A synthetic peptide RLAALALVL] . Reported binding result: binds

Record RLARLAAVL (Alanine-substituted variant of 5T4p17) [L7A synthetic peptide RLARLAAVL] . Reported binding result: no binding

Record ALARLALVL (Alanine-substituted variant of 5T4p17) [R1A synthetic peptide ALARLALVL] . Reported binding result: binds

Record RLARAALVL (Alanine-substituted variant of 5T4p17) [L5A synthetic peptide RLARAALVL] . Reported binding result: no binding

Others:
Record RLARLALAL (Alanine-substituted variant of 5T4p17) [V8A synthetic peptide RLARLALAL] . Reported binding result: no binding
